Would you mind telling me the reported Emax (IL-2 pg/ml), NCI-H226 co-culture, Donor B of each entry?
Molecular target: human CD137 on primary human CD8+ T cells (human, UniProt Q07011 24-255)
Sequence (Q07011 24-255): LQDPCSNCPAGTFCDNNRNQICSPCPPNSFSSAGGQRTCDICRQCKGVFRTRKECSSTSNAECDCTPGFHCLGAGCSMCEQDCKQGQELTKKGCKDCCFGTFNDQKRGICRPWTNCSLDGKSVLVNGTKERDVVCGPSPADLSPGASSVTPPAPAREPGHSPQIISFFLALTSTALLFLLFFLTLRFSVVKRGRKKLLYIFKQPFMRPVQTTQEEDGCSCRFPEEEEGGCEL
Assay: cell-based or functional assay
Answer in pg/mL, number only, no unit symbol.

Sample FS22-172-003-AA/FS28-256-012 (bispecific antibody, human IgG1, kappa, L234A L235A, V domains shown, IgG1 mAb^2 with LALA) VH: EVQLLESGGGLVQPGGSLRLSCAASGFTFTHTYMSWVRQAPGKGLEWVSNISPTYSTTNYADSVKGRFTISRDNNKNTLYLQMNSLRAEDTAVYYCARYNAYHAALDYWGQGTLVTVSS VL: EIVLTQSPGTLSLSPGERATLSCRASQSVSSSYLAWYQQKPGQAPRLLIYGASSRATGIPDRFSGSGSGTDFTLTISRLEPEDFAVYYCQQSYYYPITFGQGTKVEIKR — what was its Emax (IL-2 pg/ml), NCI-H226 co-culture, Donor B? 1100

// repeat for FS22-172-003-AA/FS28-256-018 (bispecific antibody, human IgG1, kappa, L234A L235A, V domains shown, IgG1 mAb^2 with LALA) VH: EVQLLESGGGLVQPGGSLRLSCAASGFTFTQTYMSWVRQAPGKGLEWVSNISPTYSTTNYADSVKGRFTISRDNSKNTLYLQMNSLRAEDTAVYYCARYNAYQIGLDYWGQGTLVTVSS VL: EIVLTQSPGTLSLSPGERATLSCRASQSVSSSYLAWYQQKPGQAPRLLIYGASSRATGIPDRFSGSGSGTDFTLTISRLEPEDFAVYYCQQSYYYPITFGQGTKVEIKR and report 903

Lookup FS22-172-003-AA/FS28-024-053 (bispecific antibody, human IgG1, kappa, L234A L235A, V domains shown, IgG1 mAb^2 with LALA) VH: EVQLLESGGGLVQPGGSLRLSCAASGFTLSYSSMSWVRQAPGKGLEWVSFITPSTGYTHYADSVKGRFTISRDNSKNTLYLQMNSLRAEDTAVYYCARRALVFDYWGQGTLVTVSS VL: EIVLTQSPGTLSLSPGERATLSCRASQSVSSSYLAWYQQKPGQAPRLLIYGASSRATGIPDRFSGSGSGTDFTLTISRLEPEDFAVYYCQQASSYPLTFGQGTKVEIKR 1440
